PROCEDURE_TEXT: Measurement of logP values by HPLC on reversed phase columns (EEC directive 79/831 Annex V.A8)
Format: physicochemical
SETUP_CONDITIONS: HPLC, pH 2.7, 0.1% formic acid; reported in preparation examples; read-out: logP(HCOOH)
RECORDED_METRIC: chromatographic logP
Field format: numeric only.

Name the recorded chromatographic logP for CCCCCOC(=O)Nc1cccnc1CON=C(c1ccccc1)c1nnnn1C .
3.53
